Test system: HCC827
Assay: In vitro cell experiment (MTT), HCC827
Format: cell-based
Settings: 72 h, human non-small cell lung carcinoma (EGFR1 19 exon mutation)
pIC50: −log10 of the molar value.
This listing pairs molecules with measured pIC50.
reported_property: pIC50

{"molecule": "CNC(=O)CCCCCOc1cc2ncnc(Nc3ccc(F)c(Cl)c3)c2cc1OC [Compound 42]", "assay_result": 8.55}
{"molecule": "COc1cc2c(Nc3ccc(Br)cc3F)ncnc2cc1OCCCCC(N)=O [Compound 33]", "assay_result": 8.02}
{"molecule": "COc1cc2c(Nc3ccc(Br)cc3F)ncnc2cc1OCCCCN1CCCC1 [Compound 30]", "assay_result": 9.30}
{"molecule": "COc1cc2c(Nc3ccc(Br)cc3F)ncnc2cc1OCCCCCC(N)=O [Compound 6]", "assay_result": 8.33}
{"molecule": "COc1cc2c(Nc3ccc(Br)cc3F)ncnc2cc1OCCCN1CCCC1 [Compound 19]", "assay_result": 10.00}
{"molecule": "COc1cc2c(Nc3ccc(Br)cc3F)ncnc2cc1OCc1cccc(C)n1 [Compound 7]", "assay_result": 8.07}
{"molecule": "COc1cc2c(Nc3ccc(F)c(Cl)c3)ncnc2cc1OCCCCCC(N)=O [Compound 24]", "assay_result": 8.25}
{"molecule": "COc1cc2c(Nc3ccc(F)c(Cl)c3)ncnc2cc1OCCCN(C)C [Compound 38]", "assay_result": 9.15}
{"molecule": "COc1cc2c(Nc3ccc(F)c(Cl)c3)ncnc2cc1OCc1csc(C)n1 [Compound 27′]", "assay_result": 8.21}
